Assay: Toxicity liver stage against HepG2, at 10uM
Assay type: cell-based
Set-up: test concentration 10 uM, cell line HepG2-A16-CD81EGFP
Conditions: human, HepG2-A16-CD81EGFP cells; read-out: INHIBITION
Measured cytotoxicity at 10 µM, listed per entry for reference.
Supply the numeric figure in %, leaving out any unit text.

Example entries begin here.
{"molecule": "Cc1ccc2nc(CN3CCN(C4CCCCC4)C(=O)C3)cc(O)c2c1", "cytotoxicity at 10 µM / %": 12.9}
{"molecule": "Cc1cc(C(=O)NCc2c(C)nn(C)c2C)nc(N2CCCC2)n1", "cytotoxicity at 10 µM / %": 7.05}
{"molecule": "CC(C)CN1CCCC2(CCN(c3ccccn3)C2)C1 (stereo unspecified)", "cytotoxicity at 10 µM / %": -1.22}
{"molecule": "CC(=O)Nc1nc(C)c(S(=O)(=O)NCCc2ccccn2)s1", "cytotoxicity at 10 µM / %": -5}

Dear colleague, I am looking for the recorded cytotoxicity at 10 µM of the following molecule: `N#Cc1cccc(Oc2ccc(CN3CCCC3)cc2Cl)n1` -16

What do you get for `O=C(Nc1cnn(-c2ccccc2Cl)c1)N[C@@H]1C=C[C@H](CO)C1` ? 0.836

What do you get for `CCN(c1ccccc1)S(=O)(=O)c1cc(C(=O)O)cc2c1CCC2` ? 9.69

What do you get for CN1CCC(Nc2ccc(Cl)cc2OCC(F)(F)F)C1=O (stereo unspecified) ? 5.02

What do you get for `COc1ccc(Cn2cc(C(=O)N(C)CCN(C)C)nn2)cc1` ? 7.13

What do you get for `Cc1ccc2c(c1)c(C)cc(=O)n2CCC(=O)O` ? -5.6

What do you get for O=C(Cn1nc2c(cc1=O)CCCC2)NC(Cc1ccccc1)C(=O)O (stereo unspecified) ? 2.24

----------
Assay: Toxicity liver stage against HepG2, at 10uM
Type: cell-based
Design: test concentration 10 uM, cell line HepG2-A16-CD81EGFP
Conditions: human, HepG2-A16-CD81EGFP cells; read-out: INHIBITION
Measured cytotoxicity at 10 µM, listed per entry for reference.

Dear colleague, I am looking for the recorded cytotoxicity at 10 µM of the following molecule: `CO[C@@H]1CC[C@H]2[C@H]1OCCN2C(=O)c1nn(C)c2ccccc12` 1.31%

What do you get for `Cc1csc(N2CCCN(C(=O)C3(C#N)CCCC3)CC2)n1` ? -1.01%

What do you get for CC(NC(=O)N1CCS(=O)(=O)CC1)c1ccc(F)cc1Cl (stereo unspecified) ? -1.28%

What do you get for CSCCC(NC(=O)c1ccc2ccccc2n1)C(=O)N(C)C (stereo unspecified) ? -12%

----------
Test: Toxicity liver stage against HepG2, at 10uM
Type: cell-based
Design: test concentration 10 uM, cell line HepG2-A16-CD81EGFP
Details: human, HepG2-A16-CD81EGFP cells; read-out: INHIBITION
reported.endpoint: cytotoxicity at 10 µM (%)
Supply the numeric figure in %, leaving out any unit text.

{"compound": "CCc1nc(CN(C(C)=O)C2CCN(CCc3ccccc3)C2)no1 (stereo unspecified)", "cytotoxicity at 10 µM, %": -2.18}
{"compound": "Cc1nc2cc(=O)[nH]n2c(C)c1CC(=O)NCc1ccoc1", "cytotoxicity at 10 µM, %": -10.4}
{"compound": "CN1[C@H](CN2CCCC2)C[C@@H]2CN(Cc3ccoc3)CC[C@@H]21", "cytotoxicity at 10 µM, %": -160}
{"compound": "CCn1ccnc1CN(C)c1cc(C2CCCNC2)nc(C)n1 (stereo unspecified)", "cytotoxicity at 10 µM, %": -2.48}
{"compound": "O=C(c1cnn2c1OCCC2)N1CCC2(CC1)OCCO2", "cytotoxicity at 10 µM, %": 7.91}

Dear colleague, I am looking for the recorded cytotoxicity at 10 µM of the following compound: CNc1cc(N2CCCC2CNCc2cnc(C)s2)ncn1 (stereo unspecified) -3.78

What do you get for `CN(C)C(=O)N1CCN(c2ccc3ccc(C(=O)NC4CC4)cn23)CC1` ? 6.53
